Form field: Kd (one value per entry).
Target: T1, EsCas13d, nuclease-dead (Eubacterium siraeum, UniProt B0MS50, R295A;H300A;R849A;H854A)
T1 sequence: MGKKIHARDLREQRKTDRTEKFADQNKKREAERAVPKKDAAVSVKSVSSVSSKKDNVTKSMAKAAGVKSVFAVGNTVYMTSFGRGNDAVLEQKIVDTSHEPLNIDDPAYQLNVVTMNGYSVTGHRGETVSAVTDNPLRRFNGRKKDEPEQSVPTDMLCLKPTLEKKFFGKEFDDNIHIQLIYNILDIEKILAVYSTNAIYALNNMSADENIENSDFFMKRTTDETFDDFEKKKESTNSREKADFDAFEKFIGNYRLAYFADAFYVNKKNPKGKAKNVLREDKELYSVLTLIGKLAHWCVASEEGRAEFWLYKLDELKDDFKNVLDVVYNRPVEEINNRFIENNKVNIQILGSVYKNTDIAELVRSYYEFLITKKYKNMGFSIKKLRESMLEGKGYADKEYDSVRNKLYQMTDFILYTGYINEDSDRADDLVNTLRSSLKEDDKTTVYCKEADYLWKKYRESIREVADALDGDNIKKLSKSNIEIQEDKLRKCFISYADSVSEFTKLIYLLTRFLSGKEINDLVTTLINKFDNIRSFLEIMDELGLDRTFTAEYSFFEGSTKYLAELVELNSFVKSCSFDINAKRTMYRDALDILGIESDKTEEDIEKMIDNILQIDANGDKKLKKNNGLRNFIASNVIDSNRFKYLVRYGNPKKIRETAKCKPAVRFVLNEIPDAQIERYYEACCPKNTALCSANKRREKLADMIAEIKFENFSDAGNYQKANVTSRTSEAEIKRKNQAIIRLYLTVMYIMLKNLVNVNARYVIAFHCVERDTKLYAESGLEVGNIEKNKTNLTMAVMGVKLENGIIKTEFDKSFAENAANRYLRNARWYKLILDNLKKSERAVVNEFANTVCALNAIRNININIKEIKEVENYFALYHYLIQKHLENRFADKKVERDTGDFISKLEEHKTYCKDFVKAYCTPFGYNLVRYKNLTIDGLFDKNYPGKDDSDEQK
Experiment: crRNA (strand 1, pre-loaded); Mg2+; 40 mM Tris-HCl pH 7.5, 150 mM NaCl, 6 mM MgCl2, 1 mM DTT, 0.1% Tween-20, 0.2 mg/ml BSA; 25 C; 10 min per concentration, then washed
Conditions: tags: His6-TwinStrep-SUMO cleaved; N-terminal SNAP kept (SNAP-Surface 488); label: 3' end held by stalled T7 RNA polymerase
State the answer as a number, implicitly in nM.

{"columns": ["binder", "Kd [nM]"],
 "data": [
  ["target 2 MT 5'PFS CUG 3'PFS AUA (mixed) RNA 1: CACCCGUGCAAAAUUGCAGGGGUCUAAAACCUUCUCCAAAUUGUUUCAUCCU RNA 2: GGGAAUGGAUCCACAUCUACGAAUUCCUGAGGAUGAAACAAUUUGGAGAAGAUAAGAUCGGAAGAGCACACGU", 2.63]
]}

Exercise: Report Kd for target 1 insU 3' of 7,insG 3' of 3 (mixed) RNA 1: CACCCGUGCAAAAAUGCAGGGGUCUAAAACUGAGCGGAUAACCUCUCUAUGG RNA 2: GGGAAUGGAUCCACAUCUACGAAUUCGUACCAUAGAGAGGUUAUCUCGCUGCACCGAGAUCGGAAGAGCACACGU please.
Solution: 5.45

Source listed as paper PMC10786891.
